- target_desc: T1, recombinant canine Nerve Growth Factor (Canis lupus familiaris NGF) (canine (Canis lupus familiaris), UniProt Q29074 110-229 (pig entry), limits assumed)
- T1 construct: also called canine NGF; Dog NGF
- T1 chain: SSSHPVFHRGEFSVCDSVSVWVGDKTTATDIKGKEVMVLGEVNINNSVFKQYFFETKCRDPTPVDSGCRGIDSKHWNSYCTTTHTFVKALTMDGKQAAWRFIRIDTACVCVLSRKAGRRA
- assay_overview: SPR, Biacore T100, dog NGF; run 11/22
assay_endpoint: Kd (nM)
Numbers only, in nM.

Examples from the recorded data:
{"columns": ["binder", "Kd, nM"],
 "data": [
  ["LTM construct 37 (HC Y100W, LC *D28S, NH31HN, S91Y) (antibody, V domains shown, Point mutant of canE3M65 as full IgG) VH: EVQLVESGGDLARPGGSLKLSCVVSGFSLIGYDINWVRQAPGKGLQWVTMIWGDGTTDYNSALKSRFTVSRDNAMNTVYLQMNSLRVEDTAVYYCARGGWYYGTSYYFDYWGQGTLVTVSS VL: DIVMTQTPLSLSVSPGETASISCRASQSISHNLNWFRQKPGQSPQRLIYYISRFHSGVPDRFSGSGSGTDFTLRISRVEADDTGVYYCQQYKTLPYTFGAGTKLEIK", 1.91],
  ["LTM construct 36 (HC Y100W, LC K92D) (antibody, V domains shown, Point mutant of canE3M65 as full IgG; Constant regions are not restated) VH: EVQLVESGGDLARPGGSLKLSCVVSGFSLIGYDINWVRQAPGKGLQWVTMIWGDGTTDYNSALKSRFTVSRDNAMNTVYLQMNSLRVEDTAVYYCARGGWYYGTSYYFDYWGQGTLVTVSS VL: DIVMTQTPLSLSVSPGETASISCRASQDISNHLNWFRQKPGQSPQRLIYYISRFHSGVPDRFSGSGSGTDFTLRISRVEADDTGVYYCQQSDTLPYTFGAGTKLEIK", 5.5]
]}

Consider now this further binder.
Look at this binder and give its reported Kd. LTM construct 35 (HC Y100W, LC D28S, H32N, K92H) (antibody, V domains shown, Point mutant of canE3M65 as full IgG; Constant regions are not restated) VH: EVQLVESGGDLARPGGSLKLSCVVSGFSLIGYDINWVRQAPGKGLQWVTMIWGDGTTDYNSALKSRFTVSRDNAMNTVYLQMNSLRVEDTAVYYCARGGWYYGTSYYFDYWGQGTLVTVSS VL: DIVMTQTPLSLSVSPGETASISCRASQSISNNLNWFRQKPGQSPQRLIYYISRFHSGVPDRFSGSGSGTDFTLRISRVEADDTGVYYCQQSHTLPYTFGAGTKLEIK
0.237
